test: Population pharmacokinetic; format: in vivo, human; conditions: bootstrap mean, 1,000 resampled datasets

- compound-string: "C[C@H]1Oc2cc(cnc2N)-c2c(nn(C)c2C#N)CN(C)C(=O)c2ccc(F)cc21"
  ωFωCL: -0.005
